experiment.summary: Pharmacokinetics in rats
Assay type: in vivo
condition.description: male SD rats, gavage, 3 mg/kg; read-out: Peak concentration Cmax
quantity.kind: Cmax

What does the data say about its Cmax? Entry: C[C@@H]1CCC[C@@H](c2ccc(-c3cc(Cl)ccc3-n3cc(Cl)nn3)oc2=O)c2cc(ccn2)-c2c(cnn2C(F)F)NC1=O (single isomer, unassigned) [Compound 1-2]
986 nM

* * *

assay.system: Human Factor XIa (Homo sapiens (Human), UniProt P03951)
Sequence (P03951 388-625): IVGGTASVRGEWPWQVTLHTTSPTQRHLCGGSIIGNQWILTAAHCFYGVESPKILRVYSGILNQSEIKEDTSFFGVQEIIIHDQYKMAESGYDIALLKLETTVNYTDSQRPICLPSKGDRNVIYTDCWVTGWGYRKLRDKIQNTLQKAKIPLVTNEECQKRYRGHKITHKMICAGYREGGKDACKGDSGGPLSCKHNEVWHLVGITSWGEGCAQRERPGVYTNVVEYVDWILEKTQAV
Sequence (P03951 19-387 partner): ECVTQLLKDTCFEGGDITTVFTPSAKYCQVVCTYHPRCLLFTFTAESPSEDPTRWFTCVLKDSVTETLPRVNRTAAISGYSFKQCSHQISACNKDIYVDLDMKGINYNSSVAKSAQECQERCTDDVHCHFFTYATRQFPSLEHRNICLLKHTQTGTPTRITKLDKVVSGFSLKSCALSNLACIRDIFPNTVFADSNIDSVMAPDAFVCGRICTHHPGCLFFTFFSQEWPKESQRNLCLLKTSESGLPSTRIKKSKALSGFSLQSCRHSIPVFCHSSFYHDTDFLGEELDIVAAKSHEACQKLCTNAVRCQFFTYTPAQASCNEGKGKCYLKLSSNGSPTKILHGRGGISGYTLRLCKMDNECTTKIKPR
quantity.kind: IC50
# output: number + unit

What does the data say about its IC50? Entry: C[C@@H]1CCC[C@@H](c2ccc(-c3cc(Cl)ccc3-n3cc(C(F)F)nn3)oc2=O)c2cc(ccn2)-c2c(cnn2C(F)F)NC1=O (single isomer, unassigned)
3.81 nM

What does the data say about its IC50? Entry: C[C@@H]1CCC[C@@H](c2ccc(-c3cc(Cl)ccc3-n3ccnn3)oc2=O)c2cc(ccn2)-c2c(cnn2C(F)F)NC1=O
3.39 nM

What does the data say about its IC50? Entry: C[C@@H]1CCC[C@H](c2ccc(-c3cc(Cl)ccc3-n3ccnn3)oc2=O)c2cc(ccn2)-c2c(cnn2C(F)F)NC1=O
10.7 nM

What does the data say about its IC50? Entry: C[C@@H]1CCC[C@@H](c2ccc(-c3cc(Cl)ccc3-n3cc(C4CC4)nn3)oc2=O)c2cc(ccn2)-c2c(cnn2C(F)F)NC1=O (single isomer, unassigned)
21.7 nM

What does the data say about its IC50? Entry: C[C@@H]1CCC[C@@H](c2ccc(-c3cc(Cl)ccc3-n3cc(Cl)nn3)n(C)c2=O)c2cc(ccn2)-c2c(cnn2C(F)F)NC1=O (single isomer, unassigned)
8.22 nM
